Experimental target: human α1G T-type channels (Homo sapiens)
Construct: expressed in transfected cells
Sequence (O43497 whole entry): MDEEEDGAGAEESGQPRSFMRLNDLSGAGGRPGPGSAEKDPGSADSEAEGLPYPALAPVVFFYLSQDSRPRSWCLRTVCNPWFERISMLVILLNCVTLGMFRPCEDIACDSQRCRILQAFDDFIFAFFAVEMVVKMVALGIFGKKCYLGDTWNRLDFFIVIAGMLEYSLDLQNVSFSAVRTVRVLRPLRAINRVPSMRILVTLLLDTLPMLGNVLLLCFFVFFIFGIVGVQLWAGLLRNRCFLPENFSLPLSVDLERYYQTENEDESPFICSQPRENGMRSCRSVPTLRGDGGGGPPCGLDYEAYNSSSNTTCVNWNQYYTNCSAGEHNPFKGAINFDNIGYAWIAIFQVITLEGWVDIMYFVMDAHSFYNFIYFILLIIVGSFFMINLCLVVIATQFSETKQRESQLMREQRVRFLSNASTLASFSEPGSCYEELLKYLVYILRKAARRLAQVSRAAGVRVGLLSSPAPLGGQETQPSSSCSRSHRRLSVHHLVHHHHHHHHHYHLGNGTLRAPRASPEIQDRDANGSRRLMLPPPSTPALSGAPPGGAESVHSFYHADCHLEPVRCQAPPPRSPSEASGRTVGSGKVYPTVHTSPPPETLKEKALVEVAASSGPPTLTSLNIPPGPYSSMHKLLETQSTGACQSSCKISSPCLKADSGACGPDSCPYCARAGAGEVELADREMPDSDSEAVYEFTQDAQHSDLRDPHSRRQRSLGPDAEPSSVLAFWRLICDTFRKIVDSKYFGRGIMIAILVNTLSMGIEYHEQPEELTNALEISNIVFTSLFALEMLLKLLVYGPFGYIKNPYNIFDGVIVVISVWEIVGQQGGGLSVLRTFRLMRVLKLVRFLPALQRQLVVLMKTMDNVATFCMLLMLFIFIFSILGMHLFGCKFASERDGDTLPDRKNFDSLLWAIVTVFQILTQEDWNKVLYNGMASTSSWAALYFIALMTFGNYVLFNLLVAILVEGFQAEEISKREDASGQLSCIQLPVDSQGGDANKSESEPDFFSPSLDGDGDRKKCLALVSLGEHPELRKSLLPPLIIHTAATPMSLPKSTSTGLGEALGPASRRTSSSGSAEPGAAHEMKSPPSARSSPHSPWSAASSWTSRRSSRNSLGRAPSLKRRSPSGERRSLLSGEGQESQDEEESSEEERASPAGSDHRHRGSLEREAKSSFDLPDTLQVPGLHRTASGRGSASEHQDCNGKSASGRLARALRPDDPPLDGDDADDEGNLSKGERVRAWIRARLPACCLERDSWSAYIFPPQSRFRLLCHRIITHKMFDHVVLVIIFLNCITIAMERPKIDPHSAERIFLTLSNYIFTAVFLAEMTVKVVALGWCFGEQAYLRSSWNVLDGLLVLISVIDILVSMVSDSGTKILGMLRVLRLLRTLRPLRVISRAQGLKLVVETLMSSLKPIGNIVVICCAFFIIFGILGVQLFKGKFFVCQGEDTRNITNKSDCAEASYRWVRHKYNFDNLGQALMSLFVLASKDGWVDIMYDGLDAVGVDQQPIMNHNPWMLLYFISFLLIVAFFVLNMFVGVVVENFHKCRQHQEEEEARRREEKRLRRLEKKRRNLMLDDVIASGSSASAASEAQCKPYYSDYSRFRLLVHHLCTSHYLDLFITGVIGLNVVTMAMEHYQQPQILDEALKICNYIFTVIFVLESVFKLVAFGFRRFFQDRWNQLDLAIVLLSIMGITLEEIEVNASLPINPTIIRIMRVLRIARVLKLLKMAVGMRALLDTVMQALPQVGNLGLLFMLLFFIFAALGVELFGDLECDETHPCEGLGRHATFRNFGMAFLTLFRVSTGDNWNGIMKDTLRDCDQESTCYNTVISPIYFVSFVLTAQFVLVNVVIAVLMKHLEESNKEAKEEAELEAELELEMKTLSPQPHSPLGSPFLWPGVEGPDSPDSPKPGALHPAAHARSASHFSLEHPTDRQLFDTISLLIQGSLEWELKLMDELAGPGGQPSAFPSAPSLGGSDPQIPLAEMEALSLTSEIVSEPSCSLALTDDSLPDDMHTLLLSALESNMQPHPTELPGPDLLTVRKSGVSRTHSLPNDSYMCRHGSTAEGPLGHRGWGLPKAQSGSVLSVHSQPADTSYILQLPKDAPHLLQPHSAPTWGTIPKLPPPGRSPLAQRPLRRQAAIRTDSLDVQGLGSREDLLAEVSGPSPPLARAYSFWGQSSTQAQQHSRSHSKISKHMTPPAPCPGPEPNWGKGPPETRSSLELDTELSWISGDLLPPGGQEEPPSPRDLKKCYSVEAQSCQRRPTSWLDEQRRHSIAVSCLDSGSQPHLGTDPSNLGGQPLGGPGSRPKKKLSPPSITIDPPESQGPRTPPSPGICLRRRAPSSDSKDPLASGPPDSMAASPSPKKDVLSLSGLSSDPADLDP
Assay info: Block of α1G T-type channels, whole-cell patch clamp in HEK cells
Format: cell-based
Assay setup: −100 mV (non-inactivating protocol), test pulse −40 mV; read-out: IC50 at −100 mV
Procedure: Standard patch-clamp techniques were employed to identify blockers of T-type currents. Briefly, previously described HEK cell lines stably expressing human α1G T-type channels were used for all the recordings (passage #: 4-20, 37° C., 5% CO2). To obtain T-type currents, plastic dishes containing semi-confluent cells were positioned on the stage of a ZEISS AXIOVERT S100 microscope after replacing the culture medium with external solution (Table 3). […]
Experimental readout: pIC50
pIC50 is a log-scale quantity: -log10 of the concentration expressed in molar.

Solved entries (count: 3):
Compound	pIC50
CN(C(=O)CC(c1ccccc1)c1ccccc1)[C@H]1CCN(C(c2ccccc2)c2ccccc2)C1 [Compound P6]	5.94
CN(C(=O)CC(c1ccccc1)c1ccccc1)[C@@H]1CCN(C(c2ccccc2)c2ccncc2)C1 (some centres unmarked) [Compound P10]	5.46
CN(C(=O)CC(c1ccccc1)c1ccccc1)[C@@H]1CCN(C(c2ccccc2)c2ccccn2)C1 (some centres unmarked) [Compound P12]	6.19

Moving on to the next compound.
**Query** // returns reported pIC50 for input CN(C(=O)CC(c1ccccc1)c1ccccc1)[C@@H]1CCN(C(c2ccccc2)c2cccnc2)C1 (some centres unmarked) [Compound P11]
**Result** 5.74

Cited source for all entries: patent US7507760B2
